The reported numbers originate from the supplement of paper PMC4954754.

System: HEK293T-Rex ERSE-FLuc
Test: ERSE-FLuc reporter activation, triplicate confirmation, relative to 500 nM thapsigargin (% of thapsigargin); higher = stronger ATF6/ERSE reporter activation
Conditions: 6.8 µM; 18 h; screen: confirmation
Recorded endpoint: ERSE-FLuc reporter activation
In your answer, state the number alone without any accompanying words.

Molecule	ERSE-FLuc reporter activation
NC(=O)c1c(NC(=O)/C=C/c2ccccc2)sc2c1CCCCC2	28.9
CCc1ccc(NC(=O)/C=C/c2ccco2)cc1	29.1
N#C/C(=C\c1ccc(O)c(O)c1)c1nc2ccccc2[nH]1	34.3
O=C(Nc1ccccc1O)c1ccc(C(=O)c2ccccc2)cc1	41.5

Qu. Query the reported ERSE-FLuc reporter activation for HEK293T-Rex ERSE-FLuc; item: `CCN(CC)c1ccc2cc(-c3nc4ccccc4n3C)c(=O)oc2c1`
Ans. 34.2

---

System: HEK293T-Rex XBP1-RLuc
Experiment: XBP1-RLuc splicing reporter activation, triplicate, relative to 500 nM thapsigargin (% of thapsigargin); higher = stronger IRE1/XBP1s reporter activation
Conditions: 6.8 µM; 18 h; screen: confirmation
Assign label 1 whenever XBP1-RLuc splicing reporter activation does not fall below 10; assign label 0 whenever it does.

A selection of reference data follows.
Structure string	Class assignment
COc1ccc(Nc2nccn3c(-c4ccsc4)cnc23)cn1	label 0
O=C1N/C(=C\c2ccc(O)cc2)C(O)=C1C=NCc1ccccc1	label 1
O=C(N/N=C/c1ccc(O)c(O)c1)c1cccc(Cl)c1	label 0
COc1ccc(CCNC(=O)c2cccc(-c3ccc(N4CCOCC4)nc3)c2)cc1	label 0
Cc1ccc(O)c(NC(=O)c2cc(C3CC3)on2)c1	label 1

Qu. Is XBP1-RLuc splicing reporter activation at least 10? Consider `O=C1N/C(=C/c2ccc(O)cc2)C(=O)N1c1cccc(Cl)c1`
Ans. label 1

Qu. Please indicate if the recorded XBP1-RLuc splicing reporter activation for `O=[N+]([O-])c1ccccc1N/N=C/c1ccc(O)c(O)c1` meets or exceeds 10.
Ans. label 1

Qu. Can `CCOc1cccc(C(=O)Nc2ccc(Br)cn2)c1` be said to have XBP1-RLuc splicing reporter activation at or above 10?
Ans. label 0

Qu. Record `CC(=O)Oc1ccc2cc(NC(=O)c3ccc(C)cc3)c(=O)oc2c1` ; criterion: XBP1-RLuc splicing reporter activation no lower than 10. Met?
Ans. label 1

Qu. Check if XBP1-RLuc splicing reporter activation >= 10 (inclusive). Item: `Cn1c(-c2cccc(Cl)c2)cnc1NC(=O)c1ccccc1`
Ans. label 0

Qu. Is the recorded value of XBP1-RLuc splicing reporter activation equal to or greater than 10 for this compound? `Fc1ccc(-c2nnc3ccc(N4CCN(c5ccccn5)CC4)nn23)cc1`
Ans. label 1

Qu. Given the entry `CCCCCC(=O)Nc1ccc(C(=O)Nc2ccccc2O)cc1` , answer whether its XBP1-RLuc splicing reporter activation meets or surpasses 10.
Ans. label 0

---

Test system: HEK293T-Rex ERSE-FLuc
Assay: ERSE-FLuc reporter activation, triplicate confirmation, relative to 500 nM thapsigargin (% of thapsigargin); higher = stronger ATF6/ERSE reporter activation
Conditions: 6.8 µM; 18 h; screen: confirmation
The following compounds are shown together with reported ERSE-FLuc reporter activation values.
Write the value as a bare number.

Structure string	Assay target	ERSE-FLuc reporter activation
O=[N+]([O-])c1ccccc1NC(=S)N/N=C/c1ccc(O)c(O)c1	HEK293T-Rex ERSE-FLuc	33.2
CCC(=O)N(Cc1cc2cc(C)ccc2n2nnnc12)C1CCCC1	HEK293T-Rex ERSE-FLuc	33.5
COc1ccccc1OCC(=O)Nc1cc(C)ccc1O	HEK293T-Rex ERSE-FLuc	33.1

Qu. // query ERSE-FLuc reporter activation value for entry `Nc1nc(Nc2ccccc2)cc(-c2ccccc2)n1`
Ans. 33.8

Qu. # query: ERSE-FLuc reporter activation of entry `Oc1ccc(-c2cn3ccccc3n2)cc1O`
Ans. 40

Qu. Sample `Cc1ccc(Nc2nc(N)c3ccccc3n2)cc1Cl` — what was its ERSE-FLuc reporter activation?
Ans. 34.8

Qu. Returns the measured ERSE-FLuc reporter activation for the input compound. Input: `Cc1ccc(NC(=O)/C=C/c2ccco2)nc1`
Ans. 27.9

Qu. # input compound: `O=C(CC(=O)Nc1ccc2nc3n(c(=O)c2c1)CCCCC3)NCc1ccco1` ; wanted: its ERSE-FLuc reporter activation
Ans. 28

Qu. # ERSE-FLuc reporter activation lookup, item `O=C1N/C(=C/c2ccc(O)cc2)C(=O)N1c1cccc(Cl)c1`
Ans. 68.2

Qu. Fill blank: measured ERSE-FLuc reporter activation of the compound `Cc1ccc(O)c(NC(=O)c2cc(CC(C)C)on2)c1` is ____.
Ans. 84.4

Qu. # ERSE-FLuc reporter activation lookup, item `CN(C)c1ccc(/C=N/NC(=O)c2cccc(Br)c2)cc1`
Ans. 26.5

Qu. # input compound: `CCOC(=O)c1sc(NC(=O)c2cccc3ccccc23)nc1C` ; wanted: its ERSE-FLuc reporter activation
Ans. 27.3

Qu. Any idea what its ERSE-FLuc reporter activation is? The compound is `COc1ccc(/C=N/NC(=O)c2cccc(F)c2)cc1Br`
Ans. 35.4

Qu. Fill in the blank: the reported ERSE-FLuc reporter activation of `Nc1cn(-c2ccccc2)nc1-c1cccs1` is ____.
Ans. 28.6

Qu. Suppose we examine the compound `O=C(N/N=C/c1ccc2c(c1)OCO2)c1cccc(F)c1` ; what ERSE-FLuc reporter activation value has been reported?
Ans. 27.1

Qu. Given the entry `Cc1ccc(C)c(/C=N/Nc2nncc3ccccc23)c1` , report its measured ERSE-FLuc reporter activation.
Ans. 29.7

---

Tested on: HEK293T-Rex XBP1-RLuc
Assay: XBP1-RLuc splicing reporter activation, triplicate, relative to 500 nM thapsigargin (% of thapsigargin); higher = stronger IRE1/XBP1s reporter activation
Details: 6.8 µM; 18 h; screen: confirmation
Assign class by XBP1-RLuc splicing reporter activation: not lower than 10 means Satisfied; lower than 10 means Not satisfied.

A selection of reference data follows.
Compound	Class assignment
N#C/C(=C/c1ccc(O)c(O)c1)c1nc2ccccc2[nH]1	Satisfied
Cc1ccc(O)c(NC(=O)c2cc(-c3ccco3)on2)c1	Satisfied
Oc1ccc(-c2csc3nc(-c4ccccc4)nn23)c(O)c1	Satisfied
O=C(COC(=O)c1ccc(O)c(O)c1)Nc1nc(-c2ccccc2)cs1	Satisfied

Qu. For this compound, is measured XBP1-RLuc splicing reporter activation 10 or higher? `Oc1ccc(/C=N/Nc2cccc(Cl)n2)c(O)c1`
Ans. Satisfied

Qu. # check: XBP1-RLuc splicing reporter activation of `O=C(Nc1ccc(O)cc1)c1c(O)c2c([nH]c1=O)CCCC2` is greater than or equal to 10
Ans. Satisfied

Qu. Identify whether the reported XBP1-RLuc splicing reporter activation of the following compound is 10 or greater: `Oc1cccc(Nc2nc(-c3ccc(O)c(O)c3)cs2)c1`
Ans. Satisfied

Qu. Exam item: decide whether the reported XBP1-RLuc splicing reporter activation for `CCN(CC)c1ccc(NC(=O)c2cccc(OC)c2)cc1` is at least 10.
Ans. Not satisfied

Qu. XBP1-RLuc splicing reporter activation >= 10 for `CN(C)c1ccc(-c2nc3ccc(N)cc3[nH]2)cc1` ?
Ans. Satisfied

Qu. Can `CC(C)c1ccc(NC(=O)/C=C/c2ccco2)cc1` be said to have XBP1-RLuc splicing reporter activation at or above 10?
Ans. Not satisfied

---

System: HEK293T-Rex XBP1-RLuc
Experiment: XBP1-RLuc splicing reporter activation, triplicate, relative to 500 nM thapsigargin (% of thapsigargin); higher = stronger IRE1/XBP1s reporter activation
Details: 6.8 µM; 18 h; screen: confirmation
Give label 1 when the value for XBP1-RLuc splicing reporter activation is at least 8. Give label 0 when it is less.

Compound	Assay target	Class assignment
O=[N+]([O-])c1ccccc1NC(=S)N/N=C/c1ccc(O)c(O)c1	HEK293T-Rex XBP1-RLuc	label 1

Qu. Dear colleague, could you confirm whether `O=C(NCCc1ccccc1)c1cc(-c2cccs2)on1` has XBP1-RLuc splicing reporter activation at or above 8?
Ans. label 0

Qu. Determine whether this compound has XBP1-RLuc splicing reporter activation no lower than 8: `Nc1ccccc1NC(=O)c1ccc(C(F)(F)F)cc1`
Ans. label 1

---

Test system: HEK293T-Rex XBP1-RLuc
Assay: XBP1-RLuc splicing reporter activation, triplicate, relative to 500 nM thapsigargin (% of thapsigargin); higher = stronger IRE1/XBP1s reporter activation
Details: 6.8 µM; 18 h; screen: confirmation
Recorded endpoint: XBP1-RLuc splicing reporter activation
Just the number, please, no unit attached.

These solved cases illustrate the format of a correct answer.
Compound	XBP1-RLuc splicing reporter activation
COc1ccc(-c2csc(N(CC3CCCO3)C(=O)CCl)n2)cc1 (stereo unspecified)	2.74
CCOC(=O)c1sc(NC(=O)c2cccc3ccccc23)nc1C	2.85
O=C(Nc1ccccc1O)c1ccc(NS(=O)(=O)c2cccc3cccnc23)cc1	14.2
Cc1nn(-c2ccc(F)cc2)c2ncc(C(=O)NCc3ccco3)c(Cl)c12	110

Qu. Item `C/C(=N\NC(=O)c1n[nH]c2c1CCCC2)c1ccc(Br)cc1` has what recorded XBP1-RLuc splicing reporter activation?
Ans. 2.87

Qu. Request the reported XBP1-RLuc splicing reporter activation associated with `COc1ccc(-n2nnnc2SCC(N)=O)c(OC)c1`
Ans. 13.9
